The measured values listed here are drawn from patent US9540333B2.

# Subject Of Test: His-tagged protein corresponding to amino acids 575-869 of human Tyk2 (Homo sapiens)
# Construct: His-tagged protein corresponding to amino acids 575-869 of human Tyk2; made in house
# Sequence (P29597 575-869): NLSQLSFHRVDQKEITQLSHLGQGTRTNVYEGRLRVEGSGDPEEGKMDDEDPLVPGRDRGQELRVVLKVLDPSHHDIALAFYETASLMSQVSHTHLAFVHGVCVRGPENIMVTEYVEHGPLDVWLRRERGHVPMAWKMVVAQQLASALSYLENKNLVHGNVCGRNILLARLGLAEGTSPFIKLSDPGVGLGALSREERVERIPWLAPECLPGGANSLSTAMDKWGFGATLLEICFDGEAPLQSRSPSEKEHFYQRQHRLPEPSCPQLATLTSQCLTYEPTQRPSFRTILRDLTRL
# Assay Info: Probe displacement assay (scintillation proximity, radiolabeled probe)
# Format: binding
# Condition Context: 2.5 nM Tyk2 (575-869), 40 nM tritiated probe, 30 minutes at room temperature
Doc: threshold 60 nM (exclusive). Items with EC50 beneath it return yes; others return no.

Smiles Code | Label Value
CNC(=O)c1cnc(Nc2cccc(-c3ccccc3)c2)nc1Nc1ccccc1C(N)=O | yes
CNC(=O)c1cnc(NCC2CC2)nc1Nc1ccccc1S(C)(=O)=O | no
CNC(=O)c1cnc(Nc2ccc(F)cc2)nc1Nc1ccccc1 | no

(Q) Is 60 nM strictly greater than the compound's reported EC50? compound: CNC(=O)c1cnc(Nc2ccc(F)c(C)c2)nc1Nc1ccccc1S(C)(=O)=O
(A) yes
